Cited source for all entries: the RNAGym collection of RNA variant scans (doi:10.1126/science.aae0568)

Measured yeast fitness values are reported for all entries that follow.
B1: tRNA (parent)
chain: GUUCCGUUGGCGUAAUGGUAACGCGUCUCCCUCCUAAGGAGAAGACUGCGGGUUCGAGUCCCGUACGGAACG

variants of: B1; assay: yeast fitness relative to wild type (ratio to wild type); higher = fitter; tRNA-Arg(CCU), competitive growth, 37 C, YPD
Fewer inactive variants are shown than the library holds.
Please give the numeric answer without any surrounding text.

See these solved cases before continuing.
If you can, please state the reported yeast fitness value of A45G G58A .
1.04

If you can, please state the reported yeast fitness value of U26G G52A .
0.816

If you can, please state the reported yeast fitness value of U28A G63A .
0.849

If you can, please state the reported yeast fitness value of C24U C49A G67C .
0.527

If you can, please state the reported yeast fitness value of U7C C11A .
0.556

---
If you can, please state the reported yeast fitness value of A36U C55U G56A .
0.864

If you can, please state the reported yeast fitness value of C5G A21G G51A .
0.617

If you can, please state the reported yeast fitness value of U28G G41C U64C .
0.521

If you can, please state the reported yeast fitness value of G6A G17C C31A A36U G56A .
0.632

If you can, please state the reported yeast fitness value of A21G C27U .
1.03

If you can, please state the reported yeast fitness value of C34U G48A .
0.798

If you can, please state the reported yeast fitness value of C49U C55G .
0.885

If you can, please state the reported yeast fitness value of G6A C62A A70C .
0.636
